- System: Influenza A virus
- ASSAY_TEXT: Anti-influenza activity against Influenza A virus H5N1 infected in chicken embryo fibroblast assessed as reduction in viral growth
- Format: functional, organism-based
The label is class 1 for EC50 below 10 µM and class 0 for EC50 equal to or exceeding 10 µM.

COMPOUND: COc1cccc(OC)c1/C=C/C(=O)/C=C/c1ccc(N(C)C)cc1
CATEGORY_LABEL: class 0
--
COMPOUND: CCC(CC)O[C@@H]1C=C(C(=O)O)C[C@H](N)[C@H]1NC(C)=O [OSELTAMIVIR CARBOXYLATE]
CATEGORY_LABEL: class 1
--
COMPOUND: CCOc1ccc(/C=C/C(=O)/C=C/c2c(OC)cccc2OC)cc1
CATEGORY_LABEL: class 0
--
COMPOUND: CCN(CC)c1ccc(/C=C/C(=O)/C=C/c2c(OC)cccc2OC)cc1
CATEGORY_LABEL: class 0
--
COMPOUND: COc1cccc(OC)c1/C=C/C(=O)/C=C/c1ccc(N2CCOCC2)cc1
CATEGORY_LABEL: class 0
--
COMPOUND: COc1cccc(OC)c1C(=O)/C=C/c1nc(C)c(C)nc1C
CATEGORY_LABEL: class 1

###

Each entry below carries its recorded CC50.
- ASSAY_TEXT: Cytotoxicity against chicken embryo fibroblast cells assessed as reduction in cell growth by CCK-8
- Assay type: toxicity, cell-based, Gallus gallus

MOLECULE: COc1cccc(OC)c1/C=C/C(=O)/C=C/c1ccc(N(C)C)cc1
CC50: > 100 µM

MOLECULE: CCOc1ccc(/C=C/C(=O)/C=C/c2c(OC)cccc2OC)cc1
CC50: > 100 µM

MOLECULE: COc1cccc(OC)c1C(=O)/C=C/c1nc(C)c(C)nc1C
CC50: < 50 µM

MOLECULE: CCN(CC)c1ccc(/C=C/C(=O)/C=C/c2c(OC)cccc2OC)cc1
CC50: > 100 µM

MOLECULE: CCC(CC)O[C@@H]1C=C(C(=O)O)C[C@H](N)[C@H]1NC(C)=O [OSELTAMIVIR CARBOXYLATE]
CC50: > 100 µM

MOLECULE: COc1cccc(OC)c1/C=C/C(=O)/C=C/c1ccc(N2CCOCC2)cc1
CC50: > 100 µM

###

Each entry below carries its recorded inhibition (INH).
- Test system: Influenza A virus
- ASSAY_TEXT: Anti-influenza activity against Influenza A virus A/Goose/Guangdong/SH7/2013 (H5N1) infected in chicken embryo fibroblast assessed as inhibition of virus-induced cytopathic effect
- Type: functional

SMILES_REPRESENTATION: COc1cccc(OC)c1/C=C/C(=O)/C=C/c1nc(C)c(C)nc1C
TARGET_UNDER_TEST: Influenza A virus
inhibition (INH) [%]: 71.53
--
SMILES_REPRESENTATION: COc1cccc(OC)c1/C=C/C(=O)/C=C/c1ccc(-n2cccn2)cc1
TARGET_UNDER_TEST: Influenza A virus
inhibition (INH) [%]: 37.85
--
SMILES_REPRESENTATION: COc1cccc(OC)c1C(=O)CCc1ccc([N+](=O)[O-])cc1
TARGET_UNDER_TEST: Influenza A virus
inhibition (INH) [%]: 2.26
--
SMILES_REPRESENTATION: COc1cccc(OC)c1/C=C/C(=O)/C=C/c1ccc(C)cc1
TARGET_UNDER_TEST: Influenza A virus
inhibition (INH) [%]: 70.3

###

- ASSAY_TEXT: Cytotoxicity against chicken embryo fibroblast cells assessed as reduction in cell growth at 50 uM by CCK-8 assay relative to control
- Type: toxicity, cell-based, Gallus gallus
- CONDITION_DETAILS: chicken embryo fibroblast cells, read-out: Activity
Each entry below carries its recorded percent cell viability relative to control at 50 µM.
QUANTITY_MEASURED: percent cell viability relative to control at 50 µM (%)

COMPOUND: COc1cccc(OC)c1/C=C/C(=O)/C=C/c1ccc(N2CCOCC2)cc1
OBSERVED: 102

COMPOUND: COc1cccc(OC)c1/C=C1\CCC/C(=C\c2ccc(C(C)(C)C)cc2)C1=O
OBSERVED: 61.1

COMPOUND: COc1cccc(OC)c1C(=O)C1OC1c1ccc([N+](=O)[O-])cc1 (stereo unspecified)
OBSERVED: 61

COMPOUND: COc1cccc(OC)c1C(=O)C1OC1c1ccccn1 (stereo unspecified)
OBSERVED: 71.8

COMPOUND: COc1cccc(OC)c1C(=O)CCc1ccc([N+](=O)[O-])cc1
OBSERVED: 61

COMPOUND: COc1cccc(OC)c1C(=O)N/N=C/c1ccc(C)cc1
OBSERVED: 61.2

COMPOUND: COc1cccc(OC)c1/C=C/C(=O)/C=C/c1ccc(N(C)C)cc1
OBSERVED: 110

COMPOUND: CCOc1ccc(/C=C/C(=O)/C=C/c2c(OC)cccc2OC)cc1
OBSERVED: 117

COMPOUND: COc1cccc(OC)c1/C=C/C(=O)/C=C/c1ccc(-n2ccnc2)cc1
OBSERVED: 106

COMPOUND: COc1cccc(OC)c1C(=O)N/N=C/c1ccc(C(C)(C)C)cc1
OBSERVED: 57.7

COMPOUND: COc1cccc(OC)c1/C=C/C(=O)/C=C/c1ccc(C)cc1
OBSERVED: 97.3

###

- Tested on: Influenza A virus
- ASSAY_TEXT: Anti-influenza activity against Influenza A virus B/Victoria infected in chicken embryo fibroblast assessed as reduction in viral growth
- Format: functional, organism-based
QUANTITY_MEASURED: EC50 (µM)

COMPOUND: CCC(CC)O[C@@H]1C=C(C(=O)O)C[C@H](N)[C@H]1NC(C)=O [OSELTAMIVIR CARBOXYLATE]
QUANTITY_MEASURED: EC50
OBSERVED: 2.43
//
COMPOUND: CCOc1ccc(/C=C/C(=O)/C=C/c2c(OC)cccc2OC)cc1
QUANTITY_MEASURED: EC50
OBSERVED: 3.13
//
COMPOUND: COc1cccc(OC)c1/C=C/C(=O)/C=C/c1ccc(N2CCOCC2)cc1
QUANTITY_MEASURED: EC50
OBSERVED: 3.13
//
COMPOUND: COc1cccc(OC)c1C(=O)/C=C/c1nc(C)c(C)nc1C
QUANTITY_MEASURED: EC50
OBSERVED: 3.87

###

Each entry below carries its recorded EC50.
- Test system: Influenza A virus
- ASSAY_TEXT: Anti-influenza activity against Influenza A virus A/PR/8/34 infected in chicken embryo fibroblast assessed as reduction in viral growth
- Type: functional, organism-based
- CONDITION_DETAILS: A/PR/8/34, Fibroblast
QUANTITY_MEASURED: EC50 (µM)

COMPOUND: CCOc1ccc(/C=C/C(=O)/C=C/c2c(OC)cccc2OC)cc1
TARGET_UNDER_TEST: Influenza A virus
OBSERVED: 7.31
--
COMPOUND: CCC(CC)O[C@@H]1C=C(C(=O)O)C[C@H](N)[C@H]1NC(C)=O [OSELTAMIVIR CARBOXYLATE]
TARGET_UNDER_TEST: Influenza A virus
OBSERVED: 3.08
--
COMPOUND: COc1cccc(OC)c1C(=O)/C=C/c1nc(C)c(C)nc1C
TARGET_UNDER_TEST: Influenza A virus
OBSERVED: 3.51
--
COMPOUND: COc1cccc(OC)c1/C=C/C(=O)/C=C/c1ccc(N2CCOCC2)cc1
TARGET_UNDER_TEST: Influenza A virus
OBSERVED: 7.31

###

- ASSAY_TEXT: Cytotoxicity against chicken embryo fibroblast cells assessed as reduction in cell growth at 50 uM by CCK-8 assay relative to control
- Format: toxicity, cell-based, Gallus gallus
- CONDITION_DETAILS: chicken embryo fibroblast cells, read-out: Activity
QUANTITY_MEASURED: percent cell viability relative to control at 50 µM (%)

COMPOUND: COc1cccc(OC)c1/C=C/C(=O)/C=C/c1cccc(N2CCOCC2)c1
UNIT_TEXT: %
OBSERVED: 69.5
//
COMPOUND: COc1cccc(OC)c1/C=C/C(=O)/C=C/c1ccc(-c2ccccc2)cc1
UNIT_TEXT: %
OBSERVED: 104
//
COMPOUND: COc1cccc(OC)c1/C=C/C(=O)/C=C/c1c(C)cc(-c2ccccc2)cc1C
UNIT_TEXT: %
OBSERVED: 108
//
COMPOUND: COc1cccc(OC)c1/C=C1\CCC/C(=C\c2nc(C)c(C)nc2C)C1=O
UNIT_TEXT: %
OBSERVED: 72.4
//
COMPOUND: COc1cccc(OC)c1/C=C/C(=O)/C=C/c1nc(C)c(C)nc1C
UNIT_TEXT: %
OBSERVED: 83.8
//
COMPOUND: COc1cccc(OC)c1C(=O)N/N=C/c1nc(C)c(C)nc1C
UNIT_TEXT: %
OBSERVED: 85
//
COMPOUND: COc1cccc(OC)c1/C=C/C(=O)/C=C/c1ccc(-c2nccs2)cc1
UNIT_TEXT: %
OBSERVED: 106
//
COMPOUND: COc1cccc(OC)c1C(=O)CCc1nc(C)c(C)nc1C
UNIT_TEXT: %
OBSERVED: 71
//
COMPOUND: COc1cccc(OC)c1/C=C/C(=O)/C=C/c1ccc([N+](=O)[O-])cc1
UNIT_TEXT: %
OBSERVED: 99.5
//
COMPOUND: COc1cccc(OC)c1/C=C/C(=O)/C=C/c1ccc(-n2ccnc2C)cc1
UNIT_TEXT: %
OBSERVED: 61
//
COMPOUND: COc1cccc(OC)c1C(=O)/C=C/c1nc(C)c(C)nc1C
UNIT_TEXT: %
OBSERVED: 39.1
//
COMPOUND: COc1cccc(OC)c1C(=O)C1OC1c1ccc(C)cc1 (configuration not stated)
UNIT_TEXT: %
OBSERVED: 62.5
//
COMPOUND: CCC(CC)O[C@@H]1C=C(C(=O)O)C[C@H](N)[C@H]1NC(C)=O [OSELTAMIVIR CARBOXYLATE]
UNIT_TEXT: %
OBSERVED: 100
//
COMPOUND: COc1cccc(OC)c1/C=C1\CCC/C(=C\c2ccccn2)C1=O
UNIT_TEXT: %
OBSERVED: 85
//
COMPOUND: COc1cc(/C=C/C(=O)/C=C/c2c(OC)cccc2OC)ccc1-c1ccccc1
UNIT_TEXT: %
OBSERVED: 126
//
COMPOUND: COc1cccc(OC)c1C(=O)N/N=C/c1ccccn1
UNIT_TEXT: %
OBSERVED: 81.9
//
COMPOUND: COc1cccc(OC)c1/C=C/C(=O)/C=C/c1ccc(-c2ccccc2)cc1C
UNIT_TEXT: %
OBSERVED: 110
//
COMPOUND: COc1cccc(OC)c1C(=O)C1OC1c1nc(C)c(C)nc1C (configuration not stated)
UNIT_TEXT: %
OBSERVED: 64.6
//
COMPOUND: COc1cccc(OC)c1/C=C/C(=O)/C=C/c1ccc(N2CCN(C)CC2)cc1
UNIT_TEXT: %
OBSERVED: 94.7
//
COMPOUND: COc1cccc(OC)c1C(=O)N/N=C/c1ccc([N+](=O)[O-])cc1
UNIT_TEXT: %
OBSERVED: 71.7
//
COMPOUND: COc1cccc(OC)c1C(=O)CCc1ccccn1
UNIT_TEXT: %
OBSERVED: 74.6
//
COMPOUND: COc1cccc(OC)c1/C=C/C(=O)/C=C/c1ccccn1
UNIT_TEXT: %
OBSERVED: 110
